molecular target: c-Myc template DNA (c-myc quadruplex); assay: Quadruplex binding / stop assay (Taq polymerase arrest, capillary electrophoresis); conditions: read-out: Stop Data c-Myc μM; concentration at which 50% of the DNA was arrested (arrested:full-length 1:1)
Parameter: IC50 (µM)
The answer is to be given in µM; state only the numeric part.

{"Compound": "CN(C)CCCCNC(=O)c1cn2c3c(c(N4CC[C@@H](NC(=O)OC(C)(C)C)C4)c(F)cc3c1=O)Oc1cc3ccccc3cc1-2", "Value unit": "µM", "IC50": 2.5}
{"Compound": "CN1CCCC1CCNC(=O)c1cn2c3cc4c(cc3oc3c(N5CC[C@H](NC(=O)OC(C)(C)C)C5)c(F)cc(c1=O)c32)c(=O)c1ccccc14 (stereo partly shown)", "Value unit": "µM", "IC50": 0.75}

IC50 measured on CN(C)CCCCNC(=O)c1cn2c3cc4oc5cc([N+](=O)[O-])ccc5[nH]c4cc3oc3c(NCCCCN(C)C)c(F)cc(c1=O)c32 = 0.18

// field: IC50; key: CCN(CC)CCCC(C)NC(=O)c1cn2c3c(c(N4CCC(c5cnccn5)C4)c(F)cc3c1=O)Oc1ccccc1-2 (stereo not shown) ; value = 3

Lab note: O=C(O)c1cn2c3cc4oc5cc([N+](=O)[O-])ccc5[nH]c4cc3oc3c(NCCCN4CCOCC4)c(F)cc(c1=O)c32 gave IC50 of 0.75

Summary for this compound, CN1CCCC1CCNc1c(F)cc2c(=O)c(C(=O)N3CCOCC3)cn3c2c1Oc1cc2ccccc2cc1-3 (stereo not shown) : IC50 is 0.42

====

experiment: Pharmacokinetic/toxicokinetic evaluation in dogs; format: in vivo, beagle dogs; settings: female, beagle, dog, plasma, iv, 1.2 mg/kg, female, Dose 1, 1.2 mg/kg IV once daily, mean, read-out: Cmax
Parameter: Cmax (µg/mL)
Give your result in µg/mL as a bare value.

Form: compound = CN1CCCC1CCNC(=O)c1cn2c3c(c(N4CCC(c5cnccn5)C4)c(F)cc3c1=O)Oc1cc3ccccc3cc1-2 (stereo not shown) ; Cmax = 0.139

====

Assay: Pharmacokinetic/toxicokinetic evaluation in dogs
Format: in vivo, beagle dogs
Details: female, beagle, dog, plasma, iv, 1.2 mg/kg, female, Dose 1, 1.2 mg/kg IV, mean, read-out: AUC(0-24)
Description: The study was conducted using three (3) test article and one (1) control article group. The control article was the solution (5% dextrose in water) used to dilute the test article prior to administration and was administered at the same volume as the high dose. The test article dosage levels for this study were approximately 12, 3.8, and 1.2 mg/kg. […] PK/TK: Blood samples for test article blood level analysis were taken. […] Plasma (lithium heparin anticoagulant) samples were prepared and analyzed.
Parameter: AUC(0-t) (ng·h/mL)
Unit ng·h/mL implied. Number only.

molecule CN1CCCC1CCNC(=O)c1cn2c3c(c(N4CCC(c5cnccn5)C4)c(F)cc3c1=O)Oc1cc3ccccc3cc1-2 (stereo not shown) [CX-3543] , AUC(0-t) observed: 381

====

Listing of entries alongside the reported pIC50.
biological target: c-Myc template DNA (c-myc quadruplex); assay: Quadruplex binding / stop assay (Taq polymerase arrest, capillary electrophoresis); settings: read-out: S DATA; Table 1D, stop assay data
Schema: pIC50 number; meaning minus log10 of the concentration expressed in molar units.

{"Molecule": "CN1CCCC1CCNC(=O)c1cn2c3c(c(N4CCC(C#N)(c5ccccc5)CC4)c(F)cc3c1=O)Oc1cc3ccccc3cc1-2 (stereo not drawn)", "Target under test": "c-Myc template DNA (c-myc quadruplex)", "Experimental result": 5.76}

Let's switch to this molecule now.
Form: molecule = CN(C)CCCCNC(=O)c1cn2c3c(c(N4CCC(NC(=O)OC(C)(C)C)C4)ccc3c1=O)Oc1cc3ccccc3cc1-2 (stereo not drawn) [compound 1538] ; pIC50 = 6.00

====

A collection of compounds and their measured pIC50
system: HeLa cells; test: MTS cell proliferation and/or cytotoxicity assay; format: cell-based, Human; settings: Homo sapiens, HeLa, 72 h, concentration at which 50% of antiproliferative cell response is seen; 3 days incubation; read-out: MTS Data Hella
Please express pIC50 as -log10 of the molar concentration.

{"Compound": "CN(C)CCCCNc1c(F)cc2c(=O)c(C(=O)NCCN3CCCC3)cn3c4cc5c(cc4oc1c23)c(=O)c1ccccc15", "Target under test": "HeLa cells", "Parameter": "pIC50", "Experimental result": 5.60}
{"Compound": "CN1CCN(CCC(=O)N[C@@H]2CCN(c3c(F)cc4c(=O)c(C(=O)NCCC5CCCN5C)cn5c4c3Oc3cc4c(cc3-5)oc3ccccc34)C2)CC1 (stereo partly drawn)", "Target under test": "HeLa cells", "Parameter": "pIC50", "Experimental result": 5.35}
{"Compound": "CN(C)CCCCNC(=O)c1cn2c3c(c(N4CC[C@@H](N)C4)c(F)cc3c1=O)Oc1ccccc1-2", "Target under test": "HeLa cells", "Parameter": "pIC50", "Experimental result": 5.60}
{"Compound": "CN1CCCC1CCNC(=O)c1cn2c3c(c(NCCc4c[nH]cn4)c(F)cc3c1=O)Oc1cc3ccccc3cc1-2 (stereo not drawn)", "Target under test": "HeLa cells", "Parameter": "pIC50", "Experimental result": 6.46}
{"Compound": "CN(C)C1CCN(c2c(F)cc3c(=O)c(C(=O)NCCC4CCCN4C)cn4c3c2Oc2cc3ccccc3cc2-4)C1 (stereo not drawn)", "Target under test": "HeLa cells", "Parameter": "pIC50", "Experimental result": 5.55}

# ---- query compound ----
pIC50 measured on CN1CCCC1CCNC(=O)c1cn2c3cc4oc5cc([N+](=O)[O-])ccc5[nH]c4cc3oc3c(NCCN4CCCC4)c(F)cc(c1=O)c32 (stereo not drawn) = 5.17

====

system: panel of cancer cell-lines; assay: MTS cell survival assay, panel of cancer cell-lines; type: cell-based; conditions: Homo sapiens, 96 h; HT-29, 4 days, MTS
Parameter: IC50 (µM)
Reply with just the number (in µM).

Form field IC50, entry CN1CCCC1CCNC(=O)c1cn2c3c(c(N4CCC(c5cnccn5)C4)c(F)cc3c1=O)Oc1cc3ccccc3cc1-2 (stereo not shown) : 5.5

====

assay: Pharmacokinetic/toxicokinetic evaluation in rats; type: in vivo; conditions: male, rat, plasma, iv, 7.1 mg/kg, male, Dose 5, 7.1 mg/kg IV once daily, read-out: AUC(0-24)
Parameter: AUC(0-t) (µg·h/mL)
Dear colleague, please return just the value in µg·h/mL, with no unit written.

The value of AUC(0-t) measured for the molecule CN1CCCC1CCNC(=O)c1cn2c3c(c(N4CCC(c5cnccn5)C4)c(F)cc3c1=O)Oc1cc3ccccc3cc1-2 (stereo not shown) turned out to be 1.01

====

target: c-Myc template DNA (c-myc quadruplex); test: Quadruplex binding / stop assay (Taq polymerase arrest, capillary electrophoresis); conditions: read-out: Stop Data c-Myc μM; concentration at which 50% of the DNA was arrested (arrested:full-length 1:1)
Parameter: IC50 (µM)
Write down the numeric answer in µM and omit the unit.

Observe how each entry below is paired with its result.
{"Compound": "O=C(NCCCN1CCOCC1)c1cn2c3cc4c(=O)c5ccccc5c(=O)c4cc3oc3c(NCCN4CCCC4)c(F)cc(c1=O)c32", "IC50 / µM": 0.13}
{"Compound": "CN1CCCC1CCNC(=O)c1cn2c3c(c(NC4CN5CCC4CC5)c(F)cc3c1=O)Oc1cc3ccccc3cc1-2 (stereo not shown) [compound 435]", "IC50 / µM": 0.75}
{"Compound": "CN1CCN(CCCNC(=O)c2cn3c4c(c(NCCCN5CCOCC5)c(F)cc4c2=O)Oc2cc4ccccc4cc2-3)CC1", "IC50 / µM": 2.5}
{"Compound": "CN1CCCC1CCNC(=O)c1cn2c3c(c(N)c(F)c(N4CC[C@H](N)C4)c3c1=O)Oc1cc3ccccc3cc1-2 (stereo partly shown)", "IC50 / µM": 1.75}
{"Compound": "Nc1ccc2[nH]c3cc4oc5c(N6CC[C@H](N)C6)c(F)cc6c(=O)c(C(=O)O)cn(c4cc3oc2c1)c56", "IC50 / µM": 1.75}

The compound CN1CCCC1CCNC(=O)c1cn2c3cc4oc5cc([N+](=O)[O-])ccc5[nH]c4cc3oc3c(NCCCN4CCOCC4)c(F)cc(c1=O)c32 (stereo not shown) showed IC50 equal to 0.75

Entry CC(C)(C)OC(=O)N[C@@H]1CCN(c2c(F)cc3c(=O)c(C(=O)NCCCN)cn4c3c2Oc2cc3ccccc3cc2-4)C1 , IC50 reported as 0.75

====

assay: Pharmacokinetic/toxicokinetic evaluation in dogs; format: in vivo, beagle dogs; conditions: female, beagle, dog, plasma, iv, 1.2 mg/kg, female, 1.2 mg/kg IV infusion, Dose 1, read-out: Mean AUC(0-24)
Parameter: AUC(0-t)
Provide the measurement as a number trailed by its unit.

// field: AUC(0-t); key: CN1CCCC1CCNC(=O)c1cn2c3c(c(N4CCC(c5cnccn5)C4)c(F)cc3c1=O)Oc1cc3ccccc3cc1-2 (stereo not shown) [CX-3543] ; value = 381 ng·h/mL

Reference for the values: patent US7507727B2
